- Tested on: 786-0 renal
- Assay info: NCI tumour cell line growth inhibition, 48 h
Known TGI of a selection of molecules

> print(dat)
                               given.smiles  data.value
1        NC(=Nc1ccc(N)cc1)C(N)=Nc1ccc(N)cc1    > 100 µM
2  CCS(=O)(=O)c1ccc(OC)c(Nc2ncc(-c3ccccc3Cl)o2)c1     > 25 µM

Now, please, on to the next molecule.
Prompt line: Please report the recorded TGI for CC1=C[C@H]2C[C@H](C)[C@H]3CC[C@H](C)[C@]4(C1)C(=O)C(O)=C(C)C(=O)[C@@]324 .
Response line: > 100 µM

* * *

- Test system: SK-OV-3 ovarian
- Assay info: NCI tumour cell line growth inhibition, 48 h
Known TGI of a selection of compounds

> print(dat)
                                   compound  data.value
1  COP(=O)(OC)/C(=C/c1cn(C(c2ccccc2)(c2ccccc2)c2ccccc2)cn1)NC=O     90.8 µM
2  COC1C2c3cc4c(cc3CC(C#N)(c3ccccc32)N1C(=O)c1ccccc1)OCO4 (centres undefined)    > 100 µM
3  CC1=C[C@H]2C[C@H](C)[C@H]3CC[C@H](C)[C@]4(C1)C(=O)C(O)=C(C)C(=O)[C@@]324    > 100 µM
4  COc1ccccc1NCc1cccc2c(=O)c3ccc(Cl)cc3oc12    > 100 µM
5  CC1NC(=O)C2=C1C(N)=NC(=O)C2 (centres undefined)    > 100 µM

Prompt line: Please report the recorded TGI for CCN(CC)c1ccc2cc(C(=O)Nc3ccc(C)cc3)c(=N)oc2c1 .
Response line: > 100 µM

Prompt line: Please report the recorded TGI for C#CC1(O)CCC2[C@@H]3CCc4cc(Oc5nc(F)nc(-c6c7ccccc7cn6C)n5)ccc4C3CC[C@@]21C (some centres undefined) .
Response line: > 100 µM

Prompt line: Please report the recorded TGI for NC(Cc1ncccn1)C(=O)O (centres undefined) .
Response line: > 100 µM

Prompt line: Please report the recorded TGI for Cc1c(C(N)=O)sc2c1c(=O)n(Cc1ccccc1)c1nnc(-c3ccc(Br)cc3)n21 .
Response line: 16.3 µM

Prompt line: Please report the recorded TGI for C[N+]1(CCC[N+]2(C)CC3C4C=CC(CC4)C3C2)CCOCC1 (centres undefined) .
Response line: > 100 µM

Prompt line: Please report the recorded TGI for Oc1[nH]c2ccccc2c1N=Nc1c(F)c(F)c(F)c(F)c1F .
Response line: > 100 µM

Prompt line: Please report the recorded TGI for O=C(c1ccccc1)n1c(-c2ccccc2)cs/c1=N\S(=O)(=O)c1ccc(N2N=C3c4ccccc4CC3C2c2cccs2)cc1 (centres undefined) .
Response line: > 100 µM

* * *

- Tested on: HCC-2998 colon
- Assay info: NCI tumour cell line growth inhibition, 48 h
Readout label: TGI

Field: example entries. Status: answers known.
> print(dat)
                                   molecule  readout.label  data.value
1  COC1C2c3cc4c(cc3CC(C#N)(c3ccccc32)N1C(=O)c1ccccc1)OCO4 (stereo not drawn)            TGI    > 100 µM
2  C=CCOC(=O)C1CCC(=O)N1C(=O)C(Cl)Cl (stereo not drawn)            TGI    > 100 µM

Now, please, on to the next molecule.
Prompt line: State its TGI on HCC-2998 colon: Oc1[nH]c2ccccc2c1N=Nc1c(F)c(F)c(F)c(F)c1F
Response line: > 100 µM

From: PubChem BioAssay (NCI)
